# Study system: RORγ-LBD (Homo sapiens, UniProt P51449)
# Construct: made in house; host or cells: SF9 cells (baculovirus); used as diluted lysate
# Sequence (P51449 269-508 limits assumed): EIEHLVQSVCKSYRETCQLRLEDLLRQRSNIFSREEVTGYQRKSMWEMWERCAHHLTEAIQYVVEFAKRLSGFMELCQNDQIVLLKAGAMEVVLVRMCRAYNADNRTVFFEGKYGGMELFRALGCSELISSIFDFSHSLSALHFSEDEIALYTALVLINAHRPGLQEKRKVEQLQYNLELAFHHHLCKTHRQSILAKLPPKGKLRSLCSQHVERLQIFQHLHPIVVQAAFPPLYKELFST
# Assay overview: RORγ-Ligand Binding Domain (LBD) TR-FRET Assay
# Assay type: biochemical
# Run conditions: RORγ-LBD TR-FRET
Endpoint name: EC50

Check out these entries, answers already filled in.
> print(dat)
                                   molecule      result
1  CC(C)n1cnc(S(=O)(=O)N2C[C@H](CCC(=O)O)Oc3ccc(/C=C/c4c(F)cccc4Cl)cc32)c1 [Example 89DY]    < 500 nM
2  CCOc1nn(CC)cc1S(=O)(=O)N1C[C@H](CCC(=O)O)Oc2ccc(/C=C/c3c(Cl)cccc3Cl)cc21 [Example 89CR]    < 500 nM
3  COc1cccc(C(F)(F)F)c1/C=C/c1ccc2c(c1)N(S(=O)(=O)c1cccc(C(F)(F)F)c1)C[C@H](CCC(=O)O)O2 [Example 89ER]    < 500 nM
4  C/C(=C\c1cc2c(cc1C)O[C@@H](CCC(=O)O)CN2S(=O)(=O)c1cccc(C(F)(F)F)c1)c1c(F)cccc1Cl    < 500 nM
5  O=S(=O)(c1cccc(C(F)(F)F)c1)N1CCCc2cc(O[C@@H]3CCc4ccccc43)ccc21 [Example 25U]  > 10000 nM

API: the following record is the query input.
Q: Item CCOc1nn(CC)cc1S(=O)(=O)N1C[C@H](CCC(=O)OC)Oc2ccc(/C=C/c3nccs3)cc21 [Example 89R] has what recorded EC50?
Ans: 5000 to 10000 nM
